B1: KLHDC10 (parent)
chain: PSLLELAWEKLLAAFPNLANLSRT

- Variants of: B1
- procedure.summary: protein stability index of a GFP-peptide fusion (GPS, HEK-293T) (PSI 1-6); higher = more stable;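 further: lentivirally expressed fusions sorted by FACS into six bins by GFP to DsRed ratio, PSI derived from sequencing read proportions per bin multiplied by bin number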
- applied.conditions: c terminus: a fixed tail appended
property.measured: protein stability index

| sequence.change | result.number |
| --- | --- |
| A19T | 1.77 |
| P16F | 1.51 |
| W8P | 3.21 |
| L11A | 2.36 |
| L18R | 1.73 |
| R23K | 2.16 |
| S2R | 1.82 |
| N20P | 1.89 |
| T24S | 2.14 |
| F15W | 2.4 |
| P1L | 2.23 |
| L11T | 1.92 |
| T24A | 2.34 |
| K10S | 1.72 |
| N20K | 1.49 |
| L21D | 2.33 |
| L4P | 1.83 |
| A13S | 2.28 |
| A19H | 1.93 |
| A14L | 2.75 |
| L11Y | 2.19 |
| L3E | 1.83 |
| S22N | 2.23 |
| A14H | 2.15 |
| R23I | 1.78 |
| L21M | 2.25 |
| K10F | 2.25 |
| L4E | 2.1 |
| R23G | 2.76 |
| L6N | 2.09 |
| N17H | 2.13 |
| E9P | 2 |
| W8Q | 2.88 |
| N17W | 2.94 |
| P1C | 1.86 |
| L21T | 2.6 |
